B1: P7S|H8S, Q5NV88 (parent)
chain: NFMLTQPHSVSESPGKTVTISCTRSSGSIASNYVQWYQQRPGSSPTTVIYEDNQRPSGVPDRFSGSIDSSSNSASLTISGLKTEDEADYYCQSYDSSN

Variants of: B1
MEASUREMENT CONTEXT: Homo sapiens; pH 7.5; Thermal; Fluorescence; Sodium phosphate 20mM; transition: 2; structure 2W0K; whole UniProt chain shown
OUTCOME MEASURE: ddG of mutation (higher = less stable) (kcal/mol)
# number only, unit kcal/mol dropped from output

Q: If you can, please state the reported ddG of mutation (higher = less stable) value of NFMLTQSSSVSESPGKTVTISCTRSSGSIASNYVQWYQQRPGSSPTTVIYEDNQRPSGVPDRFSGSIDSSSNSASLTISGLKTEDEADYYCQSYDSSN .
Ans: 1.4

Q: Can you share its ddG of mutation (higher = less stable)? I mean this variant: NFMLTQPSSVSESPGKTVTISCTRSSGSIASNYVQWYQQRPGSSPTTVIYEDNQRPSGVPDRFSGSIDSSSNSASLTISGLKTEDEADYYCQSYDSSN
Ans: 0.2

Q: ddG of mutation (higher = less stable) for NFMLTQPPSVSESPGKTVTISCTRSSGSIASNYVQWYQQRPGSSPTTVIYEDNQRPSGVPDRFSGSIDSSSNSASLTISGLKTEDEADYYCQSYDSSN ?
Ans: 0.8

# context switch: different variant, same ddG of mutation (higher = less stable)
Q: Which ddG of mutation (higher = less stable) is reported for this variant? NFMLTQSHSVSESPGKTVTISCTRSSGSIASNYVQWYQQRPGSSPTTVIYEDNQRPSGVPDRFSGSIDSSSNSASLTISGLKTEDEADYYCQSYDSSN
Ans: 1.5
